Value source: paper PMC8041999

B1: FLAG-tagged KIR2DL2, full-length, wild type, on 293T cells [human] / HLA-C*07:02-RL9 tetramer (phycoerythrin-conjugated) [modified: biotin (enzymatically, with biotin ligase)] [human | not stated] (parent complex)
chain 1: HEGVHRKPSLLAHPGRLVKSEETVILQCWSDVRFEHFLLHREGKFKDTLHLIGEHHDGVSKANFSIGPMMQDLAGTYRCYGSVTHSPYQLSAPSDPLDIVITGLYEKPSLSAQPGPTVLAGESVTLSCSSRSSYDMYHLSREGEAHECRFSAGPKVNGTFQADFPLGPATHGGTYRCFGSFRDSPYEWSNSSDPLLVSVIGNPSNSWPSPTEPSSKTGNPRHLHILIGTSVVIILFILLFFLLHRWCSNKKNAAVMDQESAGNRTANSEDSDEQDPQEVTYTQLNHCVFTQRKITRPSQRPKTPPTDIIVYAELPNAESRSKVVSCP
chain 2: not shown
chain 3: not shown
chain 4: RYRPGTVAL

Variants of: B1
Experiment: flow cytometry, HLA tetramer staining of transfected 293T cells; percentage tetramer+ normalised to percentage FLAG+; read off a plot
# ratio to parent per record follows

Completed entries (count: 5):
alteration="chain 1 E106A" observed_value=~1.2
alteration="chain 1 E21A" observed_value=~1
alteration="chain 1 S133A" observed_value=~1.2
alteration="chain 1 D72A" observed_value=~1.3
alteration="chain 1 S132A" observed_value=~1

Query string: Looking for the measured ratio to parent of chain 1 Y105A , can you help?
Result string: ~0.01

Query string: Which ratio to parent value belongs to chain 1 D135A ?
Result string: ~1.2

Query string: Which measured ratio to parent value corresponds to chain 1 M70A ?
Result string: ~0.92

Query string: For chain 1 D183A , what is its reported ratio to parent?
Result string: ~0.67

Query string: Recorded ratio to parent for chain 1 F45A , please?
Result string: ~1.1

Query string: Quick one: ratio to parent of chain 1 L104A ?
Result string: ~0.67

Query string: Entry under review: chain 1 K44A . Reported ratio to parent?
Result string: ~1.1
